target: Nanoluciferase-BRD9 fusion protein (Homo sapiens (Human), UniProt Q9H8M2); assay: SYO1 BRD9 NanoLuc degradation assay; type: cell-based; conditions: Table 5B; SYO-1 cells expressing 3×FLAG-NLuc-BRD9, 6 hours; read-out: SYO1 BRD9-NanoLuc degradation IC50
Sequence (Q9H8M2 whole entry, the tested form may be a part): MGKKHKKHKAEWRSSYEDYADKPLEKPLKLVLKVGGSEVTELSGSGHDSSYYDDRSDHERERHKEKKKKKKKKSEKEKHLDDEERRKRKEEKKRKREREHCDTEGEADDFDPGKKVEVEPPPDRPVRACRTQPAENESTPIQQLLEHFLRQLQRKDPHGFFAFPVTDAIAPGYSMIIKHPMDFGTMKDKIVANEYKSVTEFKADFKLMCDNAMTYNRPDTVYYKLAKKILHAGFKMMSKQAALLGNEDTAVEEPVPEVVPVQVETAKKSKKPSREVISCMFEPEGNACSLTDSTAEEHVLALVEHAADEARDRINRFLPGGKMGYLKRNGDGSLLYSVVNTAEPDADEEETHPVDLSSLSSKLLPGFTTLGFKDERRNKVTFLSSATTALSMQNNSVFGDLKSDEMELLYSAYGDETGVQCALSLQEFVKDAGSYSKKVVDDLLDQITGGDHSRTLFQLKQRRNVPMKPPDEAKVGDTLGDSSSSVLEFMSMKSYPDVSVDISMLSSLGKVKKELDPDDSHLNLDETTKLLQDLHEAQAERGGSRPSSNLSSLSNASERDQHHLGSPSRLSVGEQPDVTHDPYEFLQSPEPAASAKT
observed-property: DC50

Completed entries (count: 5):
- compound: "COc1cc(-c2cc(C)c(=O)n(C)c2)cc(OC)c1CN1CCC(n2cc([C@H](C)Oc3ccc4c(c3)C(=O)N(C3CCC(=O)NC3=O)C4=O)nn2)CC1 (stereo partly drawn)"
  DC50: "< 10 nM"
- compound: "COc1cc(-c2cc(C)c(=O)n(C)c2)cc(OC)c1CN1CCN(c2ccc3c(c2)C(=O)N(C2CCC(=O)NC2=O)C3=O)CC1 (stereo not drawn)"
  DC50: "< 10 nM"
- compound: "COc1cc(-c2cc(C)c(=O)n(C)c2)cc(OC)c1CN1CCC(CCN2CCN(c3ccc4c(c3)C(=O)N(C3CCC(=O)NC3=O)C4=O)CC2)CC1 (stereo not drawn)"
  DC50: "< 10 nM"
- compound: "COc1cc(-c2cn(C)c(=O)c3cnccc23)cc(OC)c1CN1CC(CC(=O)NC2CC3(C2)CC(Oc2ccc4c(c2)C(=O)N(C2CCC(=O)NC2=O)C4=O)C3)C1 (stereo not drawn)"
  DC50: "10 to 100 nM"
- compound: "CNC(=O)NCc1cc(-c2cc(OC)c(CN3CC(CN4CCC5(CC4)CN(c4ccc6c(c4)C(=O)N(C4CCC(=O)NC4=O)C6)C5)C3)c(OC)c2)cn(C)c1=O (stereo not drawn)"
  DC50: "100 to 1000 nM"

Please find the next compound below.
Ask | Please respond with reported DC50 (system Nanoluciferase-BRD9 fusion protein (Homo sapiens (Human), UniProt Q9H8M2)) for COc1cc(-c2cc(C)c(=O)n(C)c2)cc(OC)c1CN1CCC(CCN2CCN(C3CCC(=O)NC3=O)C(=O)C2)CC1 (stereo not drawn) .
Reply | > 1000 nM

* * *

target: Nanoluciferase-BRD9 fusion protein (Homo sapiens (Human)); experiment: SYO1 BRD9 NanoLuc degradation assay; assay type: cell-based; settings: Table 5C; SYO-1 cells expressing 3×FLAG-NLuc-BRD9, 6 hours; read-out: SYO1 BRD9-NanoLuc degradation IC50
observed-property: DC50

Completed entries (count: 2):
- compound: "COc1cc(-c2cn(C)c(=O)c3cnccc23)cc(OC)c1CN1CCC2(CC1)CN(c1cc(C(=O)NC3CCC(=O)NC3=O)ncn1)C2 (stereo not drawn)"
  result: "< 10 nM"
- compound: "COc1cc(-c2cc(C)c(=O)n(C)c2)cc(OC)c1CN1CC(CCc2ccc3c(c2)C(=O)N(C2CCC(=O)NC2=O)C3)C1 (stereo not drawn)"
  result: "< 10 nM"

Please find the next compound below.
Ask | Please respond with reported DC50 (system Nanoluciferase-BRD9 fusion protein (Homo sapiens (Human))) for COc1cc(-c2cn(C)c(=O)c3cnccc23)cc(OC)c1CN1CCC2(CC1)CN(c1ccnc(C(=O)NC3CCC(=O)NC3=O)c1)C2 (stereo not drawn) .
Reply | < 10 nM

* * *

target: BRD9 bromodomain (Homo sapiens (Human), UniProt Q9H8M2); test: BRD9 bromodomain TR-FRET competition binding assay; conditions: Table 4; competition with biotinylated ligand, 3 nM Flag-BRD9, 90 minutes
Sequence (Q9H8M2 133-239): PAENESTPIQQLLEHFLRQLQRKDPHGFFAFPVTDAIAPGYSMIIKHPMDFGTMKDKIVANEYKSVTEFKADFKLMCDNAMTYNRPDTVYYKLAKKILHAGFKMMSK
pIC50: −log10 of the molar value.
observed-property: pIC50

Completed entries (count: 4):
- compound: "COc1cc(-c2cn(C)c(=O)c3cnccc23)cc(OC)c1CN1CCN(C(=O)C2CC2CNC(=O)COc2cccc3c2C(=O)N(C2CCC(=O)NC2=O)C3=O)CC1 (centres unmarked) [Compound D65]"
  pIC50: "7.00 to 8.00"
- compound: "COc1cc(-c2cn(C)c(=O)c3cnccc23)cc(OC)c1CN1CC2(CC(NC(=O)CCOCCOc3cccc4c3C(=O)N(C3CCC(=O)NC3=O)C4=O)C2)C1 (centres unmarked) [Compound D93]"
  pIC50: "> 8.00"
- compound: "COc1cc(-c2cn(C)c(=O)c3cnccc23)cc(OC)c1CN1CC2(CCN(C(=O)CCOCCOc3ccc4c(c3)C(=O)N(C3CCC(=O)NC3=O)C4=O)C2)C1 (centres unmarked) [Compound D122]"
  pIC50: "> 8.00"
- compound: "COc1cc(-c2cn(C)c(=O)c3cnccc23)cc(OC)c1CN1CC(C)(C(=O)NCCCCCCCCNc2cccc3c2C(=O)N(C2CCC(=O)NC2=O)C3=O)C1 (centres unmarked) [Compound D13]"
  pIC50: "> 8.00"

Please find the next compound below.
Ask | Specify measured pIC50 for COc1cc(-c2cn(C)c(=O)c3cnccc23)cc(OC)c1CN1CCC(C2CCN(C(=O)CCOCCOc3cccc4c3C(=O)N(C3CCC(=O)NC3=O)C4=O)C2)CC1 (centres unmarked) [Compound D96] .
Reply | > 8.00
